- measuredOn: UniProt:Q15788
- Sequence (Q15788 whole entry, looked up): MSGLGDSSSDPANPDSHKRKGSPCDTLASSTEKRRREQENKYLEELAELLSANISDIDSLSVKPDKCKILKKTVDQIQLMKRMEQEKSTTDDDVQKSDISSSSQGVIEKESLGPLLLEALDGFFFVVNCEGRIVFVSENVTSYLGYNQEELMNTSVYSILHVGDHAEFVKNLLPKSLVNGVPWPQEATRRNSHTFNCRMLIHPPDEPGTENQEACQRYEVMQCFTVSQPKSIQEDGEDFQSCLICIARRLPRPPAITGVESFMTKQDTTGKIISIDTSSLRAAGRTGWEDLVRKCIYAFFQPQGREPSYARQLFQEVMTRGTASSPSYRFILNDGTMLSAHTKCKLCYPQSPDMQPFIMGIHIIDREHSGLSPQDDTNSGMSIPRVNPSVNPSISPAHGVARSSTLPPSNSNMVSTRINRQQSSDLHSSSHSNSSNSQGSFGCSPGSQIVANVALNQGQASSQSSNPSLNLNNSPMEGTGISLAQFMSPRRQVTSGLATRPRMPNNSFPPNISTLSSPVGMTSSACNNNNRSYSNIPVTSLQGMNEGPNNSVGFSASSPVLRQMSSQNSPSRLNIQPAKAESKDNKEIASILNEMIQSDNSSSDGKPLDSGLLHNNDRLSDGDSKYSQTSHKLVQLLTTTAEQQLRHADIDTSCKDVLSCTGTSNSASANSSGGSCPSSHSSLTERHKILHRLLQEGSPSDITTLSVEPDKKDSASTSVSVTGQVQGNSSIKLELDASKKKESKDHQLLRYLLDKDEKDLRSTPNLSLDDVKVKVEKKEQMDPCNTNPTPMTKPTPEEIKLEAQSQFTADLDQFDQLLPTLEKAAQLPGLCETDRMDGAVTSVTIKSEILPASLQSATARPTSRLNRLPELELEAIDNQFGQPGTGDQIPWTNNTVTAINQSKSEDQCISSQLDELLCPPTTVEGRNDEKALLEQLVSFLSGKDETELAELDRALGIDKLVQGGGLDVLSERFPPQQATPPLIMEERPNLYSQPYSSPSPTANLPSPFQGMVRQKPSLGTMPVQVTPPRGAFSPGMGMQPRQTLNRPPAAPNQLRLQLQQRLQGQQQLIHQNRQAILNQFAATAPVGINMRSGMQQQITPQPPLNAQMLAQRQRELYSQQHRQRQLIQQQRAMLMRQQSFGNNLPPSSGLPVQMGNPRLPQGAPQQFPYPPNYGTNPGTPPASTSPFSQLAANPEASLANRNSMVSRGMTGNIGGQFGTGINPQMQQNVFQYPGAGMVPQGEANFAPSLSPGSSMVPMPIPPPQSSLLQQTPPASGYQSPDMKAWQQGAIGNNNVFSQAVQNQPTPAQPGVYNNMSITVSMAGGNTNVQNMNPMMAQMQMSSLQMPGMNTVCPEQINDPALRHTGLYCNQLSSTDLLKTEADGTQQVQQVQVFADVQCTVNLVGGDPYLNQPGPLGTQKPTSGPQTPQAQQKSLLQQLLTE
- testDescription: SRC1 coactivator transcriptional activity inhibitors, dose response, counter-screen for SRC3 inhibitor project, cell-based, luminescence (AID 602168)
- testContext: Cell-based SRC1 luciferase reporter
Activity calls are given as the source filed them. The rule behind the calls is not given here.
endpointName: IC50

>>> experimentalresult("CCCS(=O)(=O)Nc1ccc(Nc2c3ccccc3nc3ccccc23)c(OC)c1")
"0.525 µM"
>>> experimentalresult("c1ccc(-c2noc(-c3ccc4ccccc4c3)n2)nc1")
"inactive"
>>> experimentalresult("COc1ccc(-c2nsc3c(N4CCCCC4)ncnc23)cc1")
"> 35.9 µM (inactive)"
>>> experimentalresult("Cc1cccc2sc(NNC(=O)c3ccc(S(=O)(=O)N4CC(C)CC(C)C4)cc3)nc12 (configuration not stated)")
"4.52 µM"
>>> experimentalresult("CCOc1ccc(-c2cc(C)n3nc(C(N)=O)cc3n2)cc1")
"inactive"

# evaluate next
Which measured IC50 value corresponds to `c1cc2[nH]snc2c2nc(C3CC3)nc12` ?
inactive
